tested on: human cervical carcinoma (HeLa) cells; test: (Photo-)cytotoxicity on 2D cell monolayers, HeLa; assay type: cell-based; conditions: 540 nm, 1-3 as chloride salts, read-out: IC50 540 nm (40 min, 9.5 J cm-2)
pIC50 by entry:
# pIC50: negative log10 of molar concentration; output just the value

moleculeSmiles	pIC50
CN(C)c1ccc(/C=C/c2ccnc(-c3cc(/C=C/c4ccc(N(C)C)cc4)ccn3)c2)cc1.CN(C)c1ccc(/C=C/c2ccnc(-c3cc(/C=C/c4ccc(N(C)C)cc4)ccn3)c2)cc1.CN(C)c1ccc(/C=C/c2ccnc(-c3cc(/C=C/c4ccc(N(C)C)cc4)ccn3)c2)cc1.F[P-](F)(F)(F)(F)F.F[P-](F)(F)(F)(F)F.[Ru+2]	4.28

Attention now turns to another entry.
Inquiry: Could you please provide reported pIC50 for "COc1ccc(/C=C/c2ccnc(-c3cc(/C=C/c4ccc(OC)cc4)ccn3)c2)cc1.F[P-](F)(F)(F)(F)F.F[P-](F)(F)(F)(F)F.[Ru+2].c1ccc(-c2ccccn2)nc1.c1ccc(-c2ccccn2)nc1" ? Thanks!
Reply text: 5.82

---

τ degassed, excited state lifetime by entry:
experiment: Excited state lifetime; format: physicochemical; details: degassed acetonitrile
Dear colleague, please return just the value in ns, with no unit written.

The examples below pair each entry with its known result.
compound	recordedMeasurement
CN(C)c1ccc(/C=C/c2ccnc(-c3cc(/C=C/c4ccc(N(C)C)cc4)ccn3)c2)cc1.F[P-](F)(F)(F)(F)F.F[P-](F)(F)(F)(F)F.[Ru+2].c1ccc(-c2ccccn2)nc1.c1ccc(-c2ccccn2)nc1 [compound 6]	405
COc1ccc(/C=C/c2ccnc(-c3cc(/C=C/c4ccc(OC)cc4)ccn3)c2)cc1.COc1ccc(/C=C/c2ccnc(-c3cc(/C=C/c4ccc(OC)cc4)ccn3)c2)cc1.F[P-](F)(F)(F)(F)F.F[P-](F)(F)(F)(F)F.[Ru+2].c1ccc(-c2ccccn2)nc1 [compound 5]	231

Attention now turns to another entry.
Inquiry: Could you please provide reported τ degassed, excited state lifetime for CN(C)c1ccc(/C=C/c2ccnc(-c3cc(/C=C/c4ccc(N(C)C)cc4)ccn3)c2)cc1.CN(C)c1ccc(/C=C/c2ccnc(-c3cc(/C=C/c4ccc(N(C)C)cc4)ccn3)c2)cc1.CN(C)c1ccc(/C=C/c2ccnc(-c3cc(/C=C/c4ccc(N(C)C)cc4)ccn3)c2)cc1.F[P-](F)(F)(F)(F)F.F[P-](F)(F)(F)(F)F.[Ru+2] [compound 2] ? Thanks!
Reply text: 222

---

test: Distribution coefficient (shake-flask, octanol/PBS); type: physicochemical; settings: ICP-MS
experimentalEndpoint: logD (octanol/PBS)

The examples below pair each entry with its known result.
compound	logD (octanol/PBS)
C(=C\c1ccnc(-c2cc(/C=C/c3ccccc3)ccn2)c1)/c1ccccc1.C(=C\c1ccnc(-c2cc(/C=C/c3ccccc3)ccn2)c1)/c1ccccc1.C(=C\c1ccnc(-c2cc(/C=C/c3ccccc3)ccn2)c1)/c1ccccc1.F[P-](F)(F)(F)(F)F.F[P-](F)(F)(F)(F)F.[Ru+2] [compound 1]	+2.6 ± 0.4
CN(C)c1ccc(/C=C/c2ccnc(-c3cc(/C=C/c4ccc(N(C)C)cc4)ccn3)c2)cc1.F[P-](F)(F)(F)(F)F.F[P-](F)(F)(F)(F)F.[Ru+2].c1ccc(-c2ccccn2)nc1.c1ccc(-c2ccccn2)nc1 [compound 6]	+0.7 ± 0.2
COc1ccc(/C=C/c2ccnc(-c3cc(/C=C/c4ccc(OC)cc4)ccn3)c2)cc1.F[P-](F)(F)(F)(F)F.F[P-](F)(F)(F)(F)F.[Ru+2].c1ccc(-c2ccccn2)nc1.c1ccc(-c2ccccn2)nc1 [compound 7]	+0.5 ± 0.2

Attention now turns to another entry.
Inquiry: Could you please provide reported logD (octanol/PBS) for COc1ccc(/C=C/c2ccnc(-c3cc(/C=C/c4ccc(OC)cc4)ccn3)c2)cc1.COc1ccc(/C=C/c2ccnc(-c3cc(/C=C/c4ccc(OC)cc4)ccn3)c2)cc1.F[P-](F)(F)(F)(F)F.F[P-](F)(F)(F)(F)F.[Ru+2].c1ccc(-c2ccccn2)nc1 [compound 5] ? Thanks!
Reply text: +1.4 ± 0.2

---

system: mouse colon carcinoma (CT-26) cells; test: (Photo-)cytotoxicity on 2D cell monolayers, CT-26; settings: CT-26, dark vs 480 nm
experimentalEndpoint: PI (480 nm)

compound	assayedSystem	PI (480 nm)
COc1ccc(/C=C/c2ccnc(-c3cc(/C=C/c4ccc(OC)cc4)ccn3)c2)cc1.COc1ccc(/C=C/c2ccnc(-c3cc(/C=C/c4ccc(OC)cc4)ccn3)c2)cc1.F[P-](F)(F)(F)(F)F.F[P-](F)(F)(F)(F)F.[Ru+2].c1ccc(-c2ccccn2)nc1 [compound 5]	mouse colon carcinoma (CT-26) cells	> 19.6
CN(C)c1ccc(/C=C/c2ccnc(-c3cc(/C=C/c4ccc(N(C)C)cc4)ccn3)c2)cc1.F[P-](F)(F)(F)(F)F.F[P-](F)(F)(F)(F)F.[Ru+2].c1ccc(-c2ccccn2)nc1.c1ccc(-c2ccccn2)nc1 [compound 6]	mouse colon carcinoma (CT-26) cells	> 41.7

Attention now turns to another entry.
Inquiry: Could you please provide reported PI (480 nm) for C(=C\c1ccnc(-c2cc(/C=C/c3ccccc3)ccn2)c1)/c1ccccc1.C(=C\c1ccnc(-c2cc(/C=C/c3ccccc3)ccn2)c1)/c1ccccc1.C(=C\c1ccnc(-c2cc(/C=C/c3ccccc3)ccn2)c1)/c1ccccc1.F[P-](F)(F)(F)(F)F.F[P-](F)(F)(F)(F)F.[Ru+2] [compound 1] ? Thanks!
Reply text: > 4.9

---

system: noncancerous retinal pigment epithelium (RPE-1) cells; test: (Photo-)cytotoxicity on 2D cell monolayers, RPE-1; details: read-out: IC50 dark; RPE-1, dark; 1-3 as chloride salts
IC50 by entry:

The examples below pair each entry with its known result.
molecule	assayedSystem	IC50
CN(C)c1ccc(/C=C/c2ccnc(-c3cc(/C=C/c4ccc(N(C)C)cc4)ccn3)c2)cc1.F[P-](F)(F)(F)(F)F.F[P-](F)(F)(F)(F)F.[Ru+2].c1ccc(-c2ccccn2)nc1.c1ccc(-c2ccccn2)nc1	noncancerous retinal pigment epithelium (RPE-1) cells	> 100 µM
COc1ccc(/C=C/c2ccnc(-c3cc(/C=C/c4ccc(OC)cc4)ccn3)c2)cc1.COc1ccc(/C=C/c2ccnc(-c3cc(/C=C/c4ccc(OC)cc4)ccn3)c2)cc1.COc1ccc(/C=C/c2ccnc(-c3cc(/C=C/c4ccc(OC)cc4)ccn3)c2)cc1.F[P-](F)(F)(F)(F)F.F[P-](F)(F)(F)(F)F.[Ru+2]	noncancerous retinal pigment epithelium (RPE-1) cells	> 100 µM
CN(C)c1ccc(/C=C/c2ccnc(-c3cc(/C=C/c4ccc(N(C)C)cc4)ccn3)c2)cc1.CN(C)c1ccc(/C=C/c2ccnc(-c3cc(/C=C/c4ccc(N(C)C)cc4)ccn3)c2)cc1.CN(C)c1ccc(/C=C/c2ccnc(-c3cc(/C=C/c4ccc(N(C)C)cc4)ccn3)c2)cc1.F[P-](F)(F)(F)(F)F.F[P-](F)(F)(F)(F)F.[Ru+2]	noncancerous retinal pigment epithelium (RPE-1) cells	> 100 µM
CN(C)c1ccc(/C=C/c2ccnc(-c3cc(/C=C/c4ccc(N(C)C)cc4)ccn3)c2)cc1.CN(C)c1ccc(/C=C/c2ccnc(-c3cc(/C=C/c4ccc(N(C)C)cc4)ccn3)c2)cc1.F[P-](F)(F)(F)(F)F.F[P-](F)(F)(F)(F)F.[Ru+2].c1ccc(-c2ccccn2)nc1	noncancerous retinal pigment epithelium (RPE-1) cells	> 100 µM
N.N.[Cl][Pt][Cl] [cisplatin, reference compound]	noncancerous retinal pigment epithelium (RPE-1) cells	29.3 µM

Inquiry: Could you please provide reported IC50 for "COc1ccc(/C=C/c2ccnc(-c3cc(/C=C/c4ccc(OC)cc4)ccn3)c2)cc1.COc1ccc(/C=C/c2ccnc(-c3cc(/C=C/c4ccc(OC)cc4)ccn3)c2)cc1.F[P-](F)(F)(F)(F)F.F[P-](F)(F)(F)(F)F.[Ru+2].c1ccc(-c2ccccn2)nc1" ? Thanks!
Reply text: > 100 µM

Inquiry: Could you please provide reported IC50 for "COc1ccc(/C=C/c2ccnc(-c3cc(/C=C/c4ccc(OC)cc4)ccn3)c2)cc1.F[P-](F)(F)(F)(F)F.F[P-](F)(F)(F)(F)F.[Ru+2].c1ccc(-c2ccccn2)nc1.c1ccc(-c2ccccn2)nc1" ? Thanks!
Reply text: > 100 µM

Inquiry: Could you please provide reported IC50 for "C(=C\c1ccnc(-c2cc(/C=C/c3ccccc3)ccn2)c1)/c1ccccc1.C(=C\c1ccnc(-c2cc(/C=C/c3ccccc3)ccn2)c1)/c1ccccc1.C(=C\c1ccnc(-c2cc(/C=C/c3ccccc3)ccn2)c1)/c1ccccc1.F[P-](F)(F)(F)(F)F.F[P-](F)(F)(F)(F)F.[Ru+2]" ? Thanks!
Reply text: > 100 µM

---

assay: Excited state lifetime; type: physicochemical; conditions: air saturated acetonitrile
τ air, excited state lifetime by entry:
Answer by giving the amount and then stating its unit.

The examples below pair each entry with its known result.
moleculeSmiles	recordedMeasurement
CN(C)c1ccc(/C=C/c2ccnc(-c3cc(/C=C/c4ccc(N(C)C)cc4)ccn3)c2)cc1.F[P-](F)(F)(F)(F)F.F[P-](F)(F)(F)(F)F.[Ru+2].c1ccc(-c2ccccn2)nc1.c1ccc(-c2ccccn2)nc1	54 ns
C(=C\c1ccnc(-c2cc(/C=C/c3ccccc3)ccn2)c1)/c1ccccc1.C(=C\c1ccnc(-c2cc(/C=C/c3ccccc3)ccn2)c1)/c1ccccc1.C(=C\c1ccnc(-c2cc(/C=C/c3ccccc3)ccn2)c1)/c1ccccc1.F[P-](F)(F)(F)(F)F.F[P-](F)(F)(F)(F)F.[Ru+2]	86 ns

Attention now turns to another entry.
Inquiry: Could you please provide reported τ air, excited state lifetime for "COc1ccc(/C=C/c2ccnc(-c3cc(/C=C/c4ccc(OC)cc4)ccn3)c2)cc1.F[P-](F)(F)(F)(F)F.F[P-](F)(F)(F)(F)F.[Ru+2].c1ccc(-c2ccccn2)nc1.c1ccc(-c2ccccn2)nc1" ? Thanks!
Reply text: 96 ns
